B1: SPRY1 (parent)
chain: WIHRPGCRCKNSNTVYCKLESCPS

Variants of: B1
assay-info: protein stability index of a GFP-peptide fusion (GPS, HEK-293T) (PSI 1-6); higher = more stable;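 note: lentivirally expressed fusions sorted by FACS into six bins by GFP to DsRed ratio, PSI derived from sequencing read proportions per bin multiplied by bin number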
condition: c terminus: a fixed tail appended
Provide the recorded protein stability index for the entries that follow.
// response body must contain only the number

Item under review: "W1H" . Reported protein stability index? 3.72

Item under review: "H3T" . Reported protein stability index? 2.71

Item under review: "L19K" . Reported protein stability index? 2.46

Item under review: "I2N" . Reported protein stability index? 3.22

Item under review: "S21I" . Reported protein stability index? 2.67

Item under review: "Y16S" . Reported protein stability index? 2.92

Item under review: "C17Y" . Reported protein stability index? 1.65

Item under review: "K10T" . Reported protein stability index? 3.11

Item under review: "C22L" . Reported protein stability index? 2.03

Item under review: "C22A" . Reported protein stability index? 3.24

Item under review: "C9G" . Reported protein stability index? 1.73
